- target or test system: CB1 (CNR1) (Homo sapiens, UniProt P21554)
- Sequence (P21554 whole entry): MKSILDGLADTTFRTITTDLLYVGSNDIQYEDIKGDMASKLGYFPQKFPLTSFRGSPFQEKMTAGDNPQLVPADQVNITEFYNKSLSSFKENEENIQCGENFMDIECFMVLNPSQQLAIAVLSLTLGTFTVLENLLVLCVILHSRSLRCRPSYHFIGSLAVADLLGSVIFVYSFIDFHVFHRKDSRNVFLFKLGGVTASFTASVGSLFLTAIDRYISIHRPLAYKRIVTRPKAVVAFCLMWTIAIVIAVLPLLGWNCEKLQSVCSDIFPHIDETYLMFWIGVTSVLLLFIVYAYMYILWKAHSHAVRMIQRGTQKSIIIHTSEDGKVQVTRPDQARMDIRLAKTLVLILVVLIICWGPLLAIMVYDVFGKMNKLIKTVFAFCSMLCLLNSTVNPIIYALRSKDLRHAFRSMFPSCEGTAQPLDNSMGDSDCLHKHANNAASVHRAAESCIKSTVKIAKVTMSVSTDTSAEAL
- method summary: cAMP CNR1 Hunter cell line antagonist assay (CB1 assay)
- experimental setup: antagonist mode, cAMP CNR1 Hunter cells, EC80 agonist; read-out: CB1 assay, Efficacy (IC50)
parameter measured: IC50

Use the examples below as a reference point.
compound	reported result
CCc1cccc(NS(=O)(=O)c2cc(Br)cc3c2OC(CC(C)C)C(=O)N3)c1 (stereo not drawn) [BC19771]	1 to 25 µM
CC1Oc2cc(S(=O)(=O)NCc3ccc(F)cc3F)c(Br)cc2NC1=O (stereo not drawn) [BC19356]	≥ 25 µM
O=C1COc2cc(S(=O)(=O)Nc3ccccc3)c(Cl)cc2N1 [BC19161]	< 1 µM

## Task API: value(readout=IC50, system=CB1 (CNR1) (Homo sapiens, UniProt P21554)) for record CCc1ccc(NS(=O)(=O)c2cc(Br)cc3c2OCCNC3=O)cc1 [BC19604]
## Result 1 to 25 µM

## Task Here is the next compound: CCC1Oc2c(cc(Br)cc2S(=O)(=O)NCc2ccc(OC(F)(F)F)cc2)NC1=O (stereo not drawn) [BC19375]
## Result 1 to 25 µM

## Task Here is the next compound: CCC1Oc2cc(S(=O)(=O)Nc3ccc(OC(F)(F)F)cc3)c(Cl)cc2NC1=O (stereo not drawn) [BC19733]
## Result 1 to 25 µM

## Task Here is the next compound: CCC1Oc2c(cc(Cl)cc2S(=O)(=O)Nc2ccc(OC(F)(F)F)cc2)NC1=O (stereo not drawn) [BC19734]
## Result 1 to 25 µM

## Task Here is the next compound: CCS(=O)(=O)c1cc2c(c(S(=O)(=O)Nc3ccc(C)cc3)c1)OCC(=O)N2 [BC19546]
## Result ≥ 25 µM

## Task Here is the next compound: CCC1Oc2c(cc(Br)cc2S(=O)(=O)Nc2ccc(F)c(F)c2)N(C)C1=O (stereo not drawn) [BC19925]
## Result 1 to 25 µM

## Task Here is the next compound: CCc1ccc(NS(=O)(=O)c2cc3c(cc2Br)NC(=O)CCO3)cc1 [BC19690]
## Result < 1 µM

## Task Here is the next compound: CS(=O)(=O)c1cc2c(c(S(=O)(=O)Nc3ccc(OC(F)(F)F)cc3)c1)OCC(=O)N2 [BC19422]
## Result ≥ 25 µM

## Task Here is the next compound: CC1Oc2cc(S(=O)(=O)N3CCOCC3)c(Br)cc2NC1=O (stereo not drawn) [BC19217]
## Result ≥ 25 µM

## Task Here is the next compound: CCc1cccc(NS(=O)(=O)c2cc3c(cc2Br)NC(=O)C(C)O3)c1 (stereo not drawn) [BC19283]
## Result 1 to 25 µM

## Task Here is the next compound: CC1Oc2cc(S(=O)(=O)Nc3ccc(OC(F)(F)F)cc3)c(Br)cc2N(C)C1=O (stereo not drawn) [BC19784]
## Result ≥ 25 µM

## Task Here is the next compound: Cc1c(Cl)cc2c(c1S(=O)(=O)Nc1ccc(Cl)cc1)OCC(=O)N2 [BC19434]
## Result ≥ 25 µM

## Task Here is the next compound: Cc1ccc(Cl)cc1NS(=O)(=O)c1cc2c(cc1Cl)NC(=O)CO2 [BC19162]
## Result < 1 µM

## Task Here is the next compound: CC1Oc2c(cc(Br)cc2S(=O)(=O)Nc2ccc(OC(F)(F)F)cc2)N(C)C1=O (stereo not drawn) [BC19783]
## Result 1 to 25 µM

## Task Here is the next compound: CCCNS(=O)(=O)c1cc2c(cc1Br)NC(=O)C(CC)O2 (stereo not drawn) [BC19222]
## Result 1 to 25 µM

## Task Here is the next compound: CCS(=O)(=O)c1cc2c(c(S(=O)(=O)Nc3ccc(F)cc3)c1)OCC(=O)N2 [BC19443]
## Result ≥ 25 µM

## Task Here is the next compound: CCC1Oc2cc(S(=O)(=O)Nc3ccc(F)c(F)c3)c(Cl)cc2NC1=O (stereo not drawn) [BC19735]
## Result ≥ 25 µM

## Task Here is the next compound: CCc1cccc(NS(=O)(=O)c2cc3c(cc2Br)N(C)C(=O)C(CC)O3)c1 (stereo not drawn) [BC19916]
## Result 1 to 25 µM

## Task Here is the next compound: O=C1CCOc2c(cc(Br)cc2S(=O)(=O)Nc2cccc(Cl)c2)N1 [BC19650]
## Result ≥ 25 µM

###

- target or test system: CB1 (CNR1) (Homo sapiens, UniProt P21554)
- method summary: cAMP CNR1 Hunter cell line antagonist assay (CB1 assay)
- experimental setup: antagonist mode, cAMP CNR1 Hunter cells, EC80 agonist; read-out: CB1 assay, Efficacy (IC50)
Reported IC50 values for a set of molecules

molecule	IC50
CCC1Oc2cc(S(=O)(=O)Nc3ccc(C)cc3)c(Br)cc2NC1=O (stereo not drawn)	≥ 25 µM
O=C1COc2c(cc(Br)cc2S(=O)(=O)Nc2ccc(F)c(F)c2)N1	1 to 25 µM
CCC1Oc2cc(S(=O)(=O)Nc3ccc(OC)cc3)c(Br)cc2N(C)C1=O (stereo not drawn)	≥ 25 µM
CC(C)c1ccc(NS(=O)(=O)c2cc3c(cc2Br)NC(=O)CCO3)cc1	1 to 25 µM
CCc1cccc(NS(=O)(=O)c2cc(Cl)cc3c2OC(C)C(=O)N3)c1 (stereo not drawn)	≥ 25 µM
CCc1ccc(NS(=O)(=O)c2cc(Br)cc3c2OC(CC)C(=O)N3C)cc1 (stereo not drawn)	≥ 25 µM
Cc1ccc(NS(=O)(=O)c2cc3c(cc2Br)NC(=O)CCO3)cc1	< 1 µM
CCc1ccc(NS(=O)(=O)c2cc(Cl)cc3c2OC(CC)C(=O)N3)cc1 (stereo not drawn)	1 to 25 µM

Now consider a different molecule.
## Task API: value(readout=IC50, system=CB1 (CNR1) (Homo sapiens, UniProt P21554)) for record CCNS(=O)(=O)c1cc(Cl)cc2c1OC(C)C(=O)N2 (stereo not drawn)
## Result 1 to 25 µM

###

- target or test system: CB1 (CNR1) (Homo sapiens)
- method summary: cAMP CNR1 Hunter cell line antagonist assay (CB1 assay)
- experimental setup: antagonist mode, cAMP CNR1 Hunter cells, EC80 agonist; read-out: CB1 assay, Efficacy (IC50)
Reported IC50 values for a set of compounds

Use the examples below as a reference point.
compound	parameter measured	reported result
CC(C)CC1Oc2cc(S(=O)(=O)Nc3ccccc3)c(Br)cc2NC1=O (stereo not drawn) [BC19762]	IC50	≥ 25 µM
CCS(=O)(=O)c1cc2c(c(S(=O)(=O)Nc3ccc(C#N)cc3)c1)OCC(=O)N2 [BC19548]	IC50	≥ 25 µM
CCC1Oc2cc(S(=O)(=O)Nc3ccc(OC)c(Cl)c3)c(Cl)cc2NC1=O (stereo not drawn) [BC19743]	IC50	≥ 25 µM

## Task Returns the measured IC50 for the input compound. Input: Cc1ccc(NS(=O)(=O)c2cc(Cl)cc3c2OCC(=O)N3)cc1Cl [BC19176]
## Result < 1 µM

## Task Here is the next compound: COc1ccc(NS(=O)(=O)c2cc3c(cc2Br)NC(=O)CO3)cc1Cl [BC19163]
## Result < 1 µM

###

- target or test system: CB1 (CNR1) (Homo sapiens)
- method summary: cAMP CNR1 Hunter cell line antagonist assay (CB1 assay)
- experimental setup: antagonist mode, cAMP CNR1 Hunter cells, EC80 agonist; read-out: CB1 assay, Efficacy (IC50)
parameter measured: IC50

compound	target or test system	reported result
COc1ccc(NS(=O)(=O)c2cc(S(C)(=O)=O)cc3c2OCC(=O)N3)cc1 [BC19485]	CB1 (CNR1) (Homo sapiens)	≥ 25 µM
CCS(=O)(=O)c1cc2c(c(S(=O)(=O)Nc3ccc(OC(F)(F)F)cc3)c1)OCC(=O)N2 [BC19435]	CB1 (CNR1) (Homo sapiens)	≥ 25 µM
CS(=O)(=O)c1cc2c(c(S(=O)(=O)Nc3cccc(F)c3)c1)OCC(=O)N2 [BC19426]	CB1 (CNR1) (Homo sapiens)	≥ 25 µM
CC1Oc2cc(S(=O)(=O)NCc3ccc(C(F)(F)F)cc3)c(Br)cc2NC1=O (centres unmarked) [BC19358]	CB1 (CNR1) (Homo sapiens)	1 to 25 µM

Now consider a different compound.
## Task Returns the measured IC50 for the input compound. Input: CC(C)CC1Oc2cc(S(=O)(=O)Nc3cccc(Cl)c3)c(Br)cc2NC1=O (centres unmarked) [BC19776]
## Result ≥ 25 µM

###

- target or test system: CB1 (CNR1) (Homo sapiens, UniProt P21554)
- method summary: cAMP CNR1 Hunter cell line antagonist assay (CB1 assay)
- Type: cell-based
- experimental setup: antagonist mode, cAMP CNR1 Hunter cells, EC80 agonist; read-out: CB1 assay, Efficacy (IC50)
pIC50: −log10 of the molar value.
Reported pIC50 values for a set of compounds

Use the examples below as a reference point.
compound	target or test system	reported result
CN1CC(=O)Nc2ccc(S(=O)(=O)N3CCCC3)cc21 [BC19181]	CB1 (CNR1) (Homo sapiens, UniProt P21554)	≤ 4.60
O=C1COc2cc(S(=O)(=O)Nc3ccc(C(F)(F)F)cc3Cl)c(Br)cc2N1 [BC19390]	CB1 (CNR1) (Homo sapiens, UniProt P21554)	≤ 4.60

## Task API: value(readout=pIC50, system=CB1 (CNR1) (Homo sapiens, UniProt P21554)) for record O=C1COc2c(cc(Br)cc2S(=O)(=O)Nc2ccc(C(F)(F)F)cc2Cl)N1 [BC19384]
## Result ≤ 4.60

## Task Here is the next compound: CS(=O)(=O)c1cc2c(c(S(=O)(=O)Nc3ccc(F)c(F)c3)c1)OCC(=O)N2 [BC19481]
## Result ≤ 4.60

## Task Here is the next compound: Cc1ccc(NS(=O)(=O)c2cc(Br)cc3c2OCCNC3=O)cc1Cl [BC19607]
## Result 4.60 to 6.00
